- tested target: T1, CaM N-lobe (residues 1–78) (human, UniProt P0DP23 2-79)
- T1 construct: human calmodulin N-lobe, residues 1-78; cDNA from the group of Daniel L. Minor Jr; also called N-domain; CaM 1–78; source: produced as described previously [28], purified
- method: other fluorescence titration; competition: 12.5 nM D-CaM mixed with helix A (46.4 nM) or helix B (20.1 nM), isolated lobe added incrementally; no Ca2+; one site Hill fit, Kd derived assuming 1:1 binding
- condition label: both partners purified
measurement name: pKd
Recall that pKd is obtained by taking minus log10 of the concentration measured in molar.

Q. Find the recorded pKd belonging to GILGSGFALKVQEQHRQKHFEKRRNPAAGLIQSAWRFYATNLSRTDLHST (domain or fragment, human, UniProt O43526 310-359, looked up, helix A of human Kv7.2 (KCNQ2) Y15065, residues G310-T359; also called segment A; source: E. coli BL21-DE3, purified (GSH sepharose)) [Kv7.2 helix A (hA residues G310–T359)] and report it.
A. 6.28
